Catalogue of compounds with associated GI50
Tested on: NCI-H522
assay.procedure: NCI tumour cell line growth inhibition, 48 h
The source made the active and inactive calls. Rule as the data show it: active = GI50 up to about 1.1 µM and inactive = higher. Where a SMILES comes first, the peptide text is derived from it. [ ]: non-standard residue; d: D form. The star is where a group is joined. Cbz = O=C(OCc1ccccc1)*; Aib = CC(C)(N)C(=O)O

The examples below pair each entry with its known result.
In [3]: df
Out[3]:
                                   compound            reported
0  CCOc1ccc(NC(=O)CC2SC(Nc3ccc(Cl)cc3)=NC2=O)cc1 (stereo not drawn)  > 10 µM (inactive)
1              COc1ccccc1-c1cc(O)c2cccnc2n1  46.9 µM (inactive)

Query block: # lookup: GI50 of CC(C)(NC(=O)C(C)(C)NC(=O)OCc1ccccc1)C(=O)O (Cbz-[Aib]-[Aib]-OH)
Result block: > 100 µM (inactive)

Query block: And the next one, "COc1ccc(/C(C#N)=C/c2ccc(OC)c(OC)c2)cc1" ?
Result block: > 100 µM (inactive)

Query block: And the next one, O=C1CCCC2C(O)CCC[C@H]12 (stereo partly drawn) ?
Result block: > 100 µM (inactive)
